Some compounds, each annotated with its measured T/C.
Test system: P388 leukemia ip, CD2F1 mice, survival T/C
Assay: NCI In Vivo Anticancer Drug Screen. Data for tumor model P388 Leukemia (intraperitoneal) in CD2F1 (CDF1) mice
Details: endpoint: median survival time; dose: 200.0 mg/kg/injection; schedule: Q01DX001 (ip); vehicle: saline with Tween-80; higher = longer survival
Toxic doses and inconclusive results are not listed.

>  <COMPOUND>
CC(=O)OCC1OC(n2nnc3c(=O)[nH]cnc32)C(OC(C)=O)C(OC(C)=O)C1OC(C)=O (stereo not given)

>  <T/C>
102 % of control

$$$$

Param request: T/C | system P388 leukemia ip, CD2F1 mice, survival T/C | item "CN1c2ccccc2C2=C(C3=C(CS2)C(=O)CCS3)S1(=O)=O"
99 % of control

Return reported T/C for target or system P388 leukemia ip, CD2F1 mice, survival T/C, item "Cc1ccc(S(=O)(=O)N/N=C/c2c(Cl)n(-c3ccccc3)c3ccccc23)cc1" .
99 % of control

Under P388 leukemia ip, CD2F1 mice, survival T/C: report T/C of Cc1cc(O)c2c3c(c(=O)oc2c1)CP(=O)(c1ccccc1)CC3 (stereo not given) .
91 % of control

Given COc1ccc2c3c1OC1C(OC)(OC)C=C[C@@]4(Br)[C@@H](C2)N(C)CC[C@]314 (stereo not given in full) , report its T/C on P388 leukemia ip, CD2F1 mice, survival T/C.
106 % of control

Give the observed T/C of "COc1ccc(CC(=O)c2ccc(OC)cc2O)cc1" for P388 leukemia ip, CD2F1 mice, survival T/C.
104 % of control

Answer with T/C of "O/N=C1/CCN2CCCc3cccc1c32" measured for P388 leukemia ip, CD2F1 mice, survival T/C.
100 % of control

Report value only: T/C, P388 leukemia ip, CD2F1 mice, survival T/C, "CCOC(=O)C#Cc1cccc(C#CC(=O)OCC)c1"
120 % of control

Under P388 leukemia ip, CD2F1 mice, survival T/C: report T/C of "CCOc1ccc(N=Nc2c(O)n(-c3ccc(Br)cc3)c(=S)n(-c3ccccc3)c2=O)cc1" .
98 % of control

GET T/C | system: P388 leukemia ip, CD2F1 mice, survival T/C | item: "NC(=S)n1nc(-c2ccccc2)c(N=Nc2cccc(Cl)c2Cl)c1-c1ccccc1"
94 % of control
